Examples of molecules with documented pEC50 follow.
molecular target: M1 muscarinic receptor (Homo sapiens); construct: expressed in transfected cells; host or cells: CHO (M1-CHO); assay: cell-based
Sequence (P11229 whole entry): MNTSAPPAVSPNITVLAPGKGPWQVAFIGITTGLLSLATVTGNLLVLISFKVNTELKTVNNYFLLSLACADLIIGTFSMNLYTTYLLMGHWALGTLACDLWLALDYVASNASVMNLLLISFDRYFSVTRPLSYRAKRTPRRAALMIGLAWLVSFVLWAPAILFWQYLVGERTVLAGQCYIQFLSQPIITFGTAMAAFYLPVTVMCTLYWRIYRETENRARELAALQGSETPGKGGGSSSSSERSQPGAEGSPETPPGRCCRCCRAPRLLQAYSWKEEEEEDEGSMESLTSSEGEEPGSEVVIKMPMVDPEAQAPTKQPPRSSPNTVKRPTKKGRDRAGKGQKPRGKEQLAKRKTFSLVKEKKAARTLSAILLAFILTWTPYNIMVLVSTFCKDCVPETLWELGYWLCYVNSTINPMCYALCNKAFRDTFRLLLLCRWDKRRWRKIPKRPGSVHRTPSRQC
pEC50: −log10 of the molar value.

These recorded examples may help you get a feel for the data.
[
  {
    "Molecule": "CCOC(=O)N1C2CCC1CC(N1CCC(N(CC)c3ccccc3)CC1)C2 (centres unmarked)",
    "pEC50": "> 5.70"
  },
  {
    "Molecule": "CCOC(=O)N1C2CCC1CC(N1CCC(N(Cc3ccccc3)C(C)=O)CC1)C2 (centres unmarked)",
    "pEC50": "> 5.70"
  },
  {
    "Molecule": "CCOC(=O)N1C2CCC1CC(N1CCC(N(C)c3ccccc3)CC1)C2 (centres unmarked)",
    "pEC50": "> 5.70"
  },
  {
    "Molecule": "CCOC(=O)N1C2CCC1CC(N1CCC(N(C(C)=O)C(C)C)CC1)C2 (centres unmarked)",
    "pEC50": "5.30 to 5.70"
  },
  {
    "Molecule": "CCOC(=O)N1C2CCC1CC(N1CCC(N(c3ccc(F)cc3)S(C)(=O)=O)CC1)C2 (centres unmarked)",
    "pEC50": "> 5.70"
  }
]

GET pEC50 where system = M1 muscarinic receptor (Homo sapiens) and item = CCOC(=O)N1C2CCC1CC(N1CCC(N(C(C)=O)C3CCCC3)CC1)C2 (centres unmarked)
> 5.70

Determine reported pEC50 for CCOC(=O)N1C2CCC1CC(N1CCC3(CCC(=O)N3c3ccccc3)CC1)C2 (centres unmarked) ; test system: M1 muscarinic receptor (Homo sapiens).
> 5.70

Give reported pEC50 for CCCN(C1CCN(C2CC3CCC(C2)N3C(=O)OCC)CC1)S(=O)(=O)c1ccc(C(F)(F)F)cc1 (centres unmarked) (M1 muscarinic receptor (Homo sapiens))
< 5.30

---

Entries and their pEC50 values follow.
Target: M2 muscarinic receptor (Homo sapiens, UniProt P08172)
Construct: expressed in transfected cells; host or cells: CHO (M2-CHO)
Sequence (P08172 1-466): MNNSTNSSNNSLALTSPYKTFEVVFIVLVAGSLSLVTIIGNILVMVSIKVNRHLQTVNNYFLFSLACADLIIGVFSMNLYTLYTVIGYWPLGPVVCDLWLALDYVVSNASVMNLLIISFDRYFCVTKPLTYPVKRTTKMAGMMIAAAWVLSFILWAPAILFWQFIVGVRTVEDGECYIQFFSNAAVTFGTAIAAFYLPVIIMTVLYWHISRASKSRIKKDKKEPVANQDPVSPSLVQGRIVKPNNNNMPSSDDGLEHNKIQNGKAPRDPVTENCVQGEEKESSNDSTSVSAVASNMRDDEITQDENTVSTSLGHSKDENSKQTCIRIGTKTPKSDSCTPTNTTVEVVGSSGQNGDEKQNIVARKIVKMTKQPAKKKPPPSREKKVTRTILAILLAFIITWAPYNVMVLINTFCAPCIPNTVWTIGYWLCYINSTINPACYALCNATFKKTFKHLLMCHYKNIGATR
Experiment: cell-based
pEC50: −log10 of the molar value.

Please review the following examples before continuing.
[
  {
    "Molecule": "CCOC(=O)N1C2CCC1CC(N1CCC(N(C(C)=O)C(C)C)CC1)C2 (centres unmarked) [Compound 60]",
    "pEC50": "< 5.30"
  },
  {
    "Molecule": "CCOC(=O)N1C2CCC1CC(N1CCC(N(CC)c3ccccc3)CC1)C2 (centres unmarked) [Compound 37]",
    "pEC50": "< 5.30"
  },
  {
    "Molecule": "CCOC(=O)N1C2CCC1CC(N1CCC(N(C(C)=O)C3CCCCC3)CC1)C2 (centres unmarked) [Compound 63]",
    "pEC50": "5.30 to 5.70"
  }
]

Kindly indicate its recorded pEC50. Item: CCOC(=O)N1C2CCC1CC(N1CCC(N(C)c3ccccc3)CC1)C2 (centres unmarked) [Compound 27]
< 5.30

Identify pEC50 associated with the molecule CCOC(=O)N1C2CCC1CC(N1CCC3(CCC(=O)N3c3ccccc3)CC1)C2 (centres unmarked) [Compound 88]
> 5.70

---

biological target: M4 muscarinic receptor (Homo sapiens); construct: expressed in transfected cells; host or cells: CHO (M4-CHO); test: cell-based
Recorded EC50 by entry

The cases that follow already have their EC50 on record.
[
  {
    "Compound": "CCOC(=O)N1C2CCC1CC(N1CCC(N(C)c3ccccc3)CC1)C2 (centres unmarked)",
    "EC50": "> 5 µM"
  },
  {
    "Compound": "CCOC(=O)N1C2CCC1CC(N1CCC(N(CC(C)C)S(=O)(=O)c3ccc(C(F)(F)F)cc3)CC1)C2 (centres unmarked)",
    "EC50": "> 5 µM"
  },
  {
    "Compound": "CCOC(=O)N1C2CCC1CC(N1CCC3(CCC(=O)N3c3ccccc3)CC1)C2 (centres unmarked)",
    "EC50": "< 2 µM"
  },
  {
    "Compound": "CCOC(=O)N1C2CCC1CC(N1CCC(N(C(C)=O)C(C)C)CC1)C2 (centres unmarked)",
    "EC50": "> 5 µM"
  }
]

Look up and report measured EC50 for this entry: CCOC(=O)N1C2CCC1CC(N1CCC(N(c3ccc(F)cc3)S(C)(=O)=O)CC1)C2 (centres unmarked)
2 to 5 µM

---

target: M4 muscarinic receptor (Homo sapiens, UniProt P08173); construct: expressed in transfected cells; host or cells: CHO (M4-CHO); test: cell-based; conditions: read-out: M4 Efficacy
Sequence (P08173 whole entry): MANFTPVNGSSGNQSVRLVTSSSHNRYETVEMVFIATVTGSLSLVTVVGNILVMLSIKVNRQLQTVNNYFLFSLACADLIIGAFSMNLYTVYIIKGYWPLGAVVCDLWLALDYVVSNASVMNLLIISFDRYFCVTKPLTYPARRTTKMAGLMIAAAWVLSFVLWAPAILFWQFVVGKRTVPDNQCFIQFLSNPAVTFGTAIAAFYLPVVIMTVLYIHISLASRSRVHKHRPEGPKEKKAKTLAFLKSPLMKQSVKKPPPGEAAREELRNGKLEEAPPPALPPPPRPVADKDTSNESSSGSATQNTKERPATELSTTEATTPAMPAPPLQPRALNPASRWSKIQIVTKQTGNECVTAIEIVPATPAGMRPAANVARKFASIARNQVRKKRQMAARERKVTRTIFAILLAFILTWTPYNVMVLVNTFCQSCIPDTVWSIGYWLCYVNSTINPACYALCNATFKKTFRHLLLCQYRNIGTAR
Measured property: Emax

Please review the entries below; each comes with its answer.
[
  {
    "Compound": "CCOC(=O)N1C2CCC1CC(N1CCC(N(CC)c3ccccc3)CC1)C2 (centres unmarked) [Compound 37]",
    "Measured property": "Emax",
    "Result": "< 25%"
  },
  {
    "Compound": "CCOC(=O)N1C2CCC1CC(N1CCC(N(CC(=O)CC)c3ccc(F)cc3)CC1)C2 (centres unmarked) [Compound 20]",
    "Measured property": "Emax",
    "Result": "< 25%"
  },
  {
    "Compound": "CCOC(=O)N1C2CCC1CC(N1CCC(N(C)c3ccc(F)cc3)CC1)C2 (centres unmarked) [Compound 9]",
    "Measured property": "Emax",
    "Result": "25 to 100%"
  },
  {
    "Compound": "CCCN(C1CCN(C2CC3CCC(C2)N3C(=O)OCC)CC1)S(=O)(=O)c1ccc(C(F)(F)F)cc1 (centres unmarked) [Compound 19]",
    "Measured property": "Emax",
    "Result": "< 25%"
  },
  {
    "Compound": "CCOC(=O)N1C2CCC1CC(N1CCC(N(C(C)=O)C(C)C)CC1)C2 (centres unmarked) [Compound 60]",
    "Measured property": "Emax",
    "Result": "< 25%"
  },
  {
    "Compound": "CCOC(=O)N1C2CCC1CC(N1CCC(N(Cc3ccccc3)C(C)=O)CC1)C2 (centres unmarked) [Compound 35]",
    "Measured property": "Emax",
    "Result": "25 to 100%"
  }
]

Provide only the value of recorded Emax for CCOC(=O)N1C2CCC1CC(N1CCC(N(C(C)=O)C3CCCC3)CC1)C2 (centres unmarked) [Compound 15]
25 to 100%

Given the compound CCOC(=O)N1C2CCC1CC(N1CCC(N(C(C)=O)C3CCCCC3)CC1)C2 (centres unmarked) [Compound 63] , write its reported Emax.
25 to 100%

---

Reported Emax values follow for various molecules
target: M4 muscarinic receptor (Homo sapiens, UniProt P08173); construct: expressed in transfected cells; host or cells: CHO (M4-CHO); experiment: cell-based; conditions: read-out: M4 Efficacy

[
  {
    "Molecule": "CCOC(=O)N1C2CCC1CC(N1CCC(N(CC(C)C)S(=O)(=O)c3ccc(C(F)(F)F)cc3)CC1)C2 (stereo not shown)",
    "Measured property": "Emax",
    "Result": "< 25%"
  },
  {
    "Molecule": "CCOC(=O)N1C2CCC1CC(N1CCC(N(c3ccc(F)cc3)S(C)(=O)=O)CC1)C2 (stereo not shown)",
    "Measured property": "Emax",
    "Result": "25 to 100%"
  },
  {
    "Molecule": "CCOC(=O)N1C2CCC1CC(N1CCC(Nc3ccc(F)cc3)CC1)C2 (stereo not shown)",
    "Measured property": "Emax",
    "Result": "< 25%"
  }
]

Indicate its recorded Emax; the molecule in question is CCOC(=O)N1C2CCC1CC(N1CCC(N(C)c3ccccc3)CC1)C2 (stereo not shown)
< 25%

---

Recorded pEC50 for the following compounds
molecular target: M4 muscarinic receptor (Homo sapiens, UniProt P08173); construct: expressed in transfected cells; host or cells: CHO (M4-CHO); experiment: cell-based
pEC50: −log10 of the molar value.

// known answers, use as guide
[
  {
    "Compound": "CCOC(=O)N1C2CCC1CC(N1CCC(N(C)c3ccc(F)cc3)CC1)C2 (centres unmarked) [Compound 9]",
    "Target entity": "M4 muscarinic receptor (Homo sapiens, UniProt P08173)",
    "pEC50": "< 5.30"
  },
  {
    "Compound": "CCOC(=O)N1C2CCC1CC(N1CCC(N(C(C)=O)C3CCCC3)CC1)C2 (centres unmarked) [Compound 15]",
    "Target entity": "M4 muscarinic receptor (Homo sapiens, UniProt P08173)",
    "pEC50": "> 5.70"
  }
]

Now for another entry.
Tell me its pEC50 on M4 muscarinic receptor (Homo sapiens, UniProt P08173): CCOC(=O)N1C2CCC1CC(N1CCC(N(CC)c3ccccc3)CC1)C2 (centres unmarked) [Compound 37]
> 5.70
